# pIC50 measurements, system: Butyrylcholinesterase (BChE) (Equus caballus, UniProt P81908)
# Sequence (P81908 whole entry): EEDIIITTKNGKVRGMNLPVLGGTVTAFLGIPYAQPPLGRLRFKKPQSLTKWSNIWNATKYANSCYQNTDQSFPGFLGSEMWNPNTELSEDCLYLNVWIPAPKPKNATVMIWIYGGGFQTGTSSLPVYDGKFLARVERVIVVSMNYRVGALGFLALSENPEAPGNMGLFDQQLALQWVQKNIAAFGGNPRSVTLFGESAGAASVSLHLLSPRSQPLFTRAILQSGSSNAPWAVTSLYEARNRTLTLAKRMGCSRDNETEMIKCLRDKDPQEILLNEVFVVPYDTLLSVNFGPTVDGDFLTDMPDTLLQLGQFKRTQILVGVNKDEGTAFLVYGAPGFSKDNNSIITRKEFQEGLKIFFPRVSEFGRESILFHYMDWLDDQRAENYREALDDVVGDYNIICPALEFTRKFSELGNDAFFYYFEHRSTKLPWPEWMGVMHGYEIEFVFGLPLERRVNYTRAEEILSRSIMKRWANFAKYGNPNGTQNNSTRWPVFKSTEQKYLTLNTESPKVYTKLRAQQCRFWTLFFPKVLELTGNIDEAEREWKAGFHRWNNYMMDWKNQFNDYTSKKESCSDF
Please express pIC50 as -log10 of the molar concentration.

Take a look at these entries with their results.
INSERT INTO assay_data (compound, measurement_target, endpoint_value) VALUES
  ('Cc1cccc2cc(C=NNC(=S)Nc3ccc(F)cc3)c(N3CCCCC3)nc12 [Compound 6j]', 'Butyrylcholinesterase (BChE) (Equus caballus, UniProt P81908)', 4.29),
  ('Cc1ccc2nc(N3CCCCC3)c(C=NNC(=S)NCc3ccccc3)cc2c1 [Compound 5l]', 'Butyrylcholinesterase (BChE) (Equus caballus, UniProt P81908)', 4.35),
  ('CCc1ccc(NC(=S)NN=Cc2cc3cccc(C)c3nc2N2CCCCC2)cc1 [Compound 6k]', 'Butyrylcholinesterase (BChE) (Equus caballus, UniProt P81908)', 4.49),
  ('Cc1cccc2cc(C=NNC(=S)Nc3ccccc3Cl)c(N3CCCCC3)nc12 [Compound 6e]', 'Butyrylcholinesterase (BChE) (Equus caballus, UniProt P81908)', 4.43),
  ('CCc1ccc(NC(=S)NN=Cc2cc3cc(C)ccc3nc2N2CCCCC2)cc1 [Compound 5k]', 'Butyrylcholinesterase (BChE) (Equus caballus, UniProt P81908)', 4.49);

Query Cc1ccc2nc(N3CCCCC3)c(C=NNC(=S)Nc3ccc(Cl)cc3)cc2c1 [Compound 5g] on Butyrylcholinesterase (BChE) (Equus caballus, UniProt P81908); pIC50 returned: 4.64

Query Cc1cccc2cc(C=NNC(N)=S)c(N3CCCCC3)nc12 [Compound 6a] on Butyrylcholinesterase (BChE) (Equus caballus, UniProt P81908); pIC50 returned: 4.22

Query Cc1cccc2cc(C=NNC(=S)Nc3ccccc3F)c(N3CCCCC3)nc12 [Compound 6h] on Butyrylcholinesterase (BChE) (Equus caballus, UniProt P81908); pIC50 returned: 4.35

Query Cc1ccc2nc(N3CCCCC3)c(C=NNC(=S)Nc3cccc(Cl)c3)cc2c1 [Compound 5f] on Butyrylcholinesterase (BChE) (Equus caballus, UniProt P81908); pIC50 returned: 4.61

Query Cc1cccc2cc(C=NNC(=S)Nc3cccc(F)c3)c(N3CCCCC3)nc12 [Compound 6i] on Butyrylcholinesterase (BChE) (Equus caballus, UniProt P81908); pIC50 returned: 4.29

Query Cc1ccc2nc(N3CCCCC3)c(C=NNC(=S)Nc3cccc(F)c3)cc2c1 [Compound 5i] on Butyrylcholinesterase (BChE) (Equus caballus, UniProt P81908); pIC50 returned: 4.44

Query Cc1ccc2nc(N3CCCCC3)c(C=NNC(N)=S)cc2c1 [Compound 5a] on Butyrylcholinesterase (BChE) (Equus caballus, UniProt P81908); pIC50 returned: 4.45

Query Cc1ccc2nc(N3CCCCC3)c(C=NNC(=S)Nc3ccccc3Cl)cc2c1 [Compound 5e] on Butyrylcholinesterase (BChE) (Equus caballus, UniProt P81908); pIC50 returned: 4.40

Query Cc1ccc2nc(N3CCCCC3)c(C=NNC(=S)NCCN3CCOCC3)cc2c1 [Compound 5m] on Butyrylcholinesterase (BChE) (Equus caballus, UniProt P81908); pIC50 returned: 4.23

###

# viability at 24 h, 1000 μg/mL per entry
Test: In vitro cytotoxicity, MTT assay
Type: cell-based
Conditions: human, HepG2 cells; HepG2, 1000 μg/mL, 24 h, control = 100; read-out: Cell Viability
Description: HepG2 cell line was obtained from the cell culture laboratory established in The University of Lahore. These cell lines were preserved in cryo vials present in liquid nitrogen. Cryo vials were revived for further processing. The cryo vials obtained from liquid nitrogen cylinder were thawed. […] After 4 h formazan crystals were solubilized with 10% sodium dodecylsulphate (SDS) (Invitrogen Inc.) and absorbance was taken at 570 nm. […]
Response body: numeric value in %, unit text excluded.

INSERT INTO assay_data (record_smiles, endpoint_value) VALUES
  ('Cc1ccc2nc(N3CCCCC3)c(C=NNC(=S)Nc3cccc(F)c3)cc2c1', 149);

The value of viability at 24 h, 1000 μg/mL measured for the molecule `Cc1cccc2cc(C=NNC(=S)Nc3ccccc3)c(N3CCCCC3)nc12` turned out to be 69.2

The value of viability at 24 h, 1000 μg/mL measured for the molecule `Cc1ccc2nc(N3CCCCC3)c(C=NNC(=S)Nc3ccccc3Cl)cc2c1` turned out to be 76.3

The value of viability at 24 h, 1000 μg/mL measured for the molecule `Cc1cccc(C)c1NC(=S)NN=Cc1cc2cccc(C)c2nc1N1CCCCC1` turned out to be 173

The value of viability at 24 h, 1000 μg/mL measured for the molecule `Cc1ccc2nc(N3CCCCC3)c(C=NNC(=S)Nc3c(C)cccc3C)cc2c1` turned out to be 131

The value of viability at 24 h, 1000 μg/mL measured for the molecule `Cc1ccc2nc(N3CCCCC3)c(C=NNC(=S)Nc3ccc(F)cc3)cc2c1` turned out to be 166

The value of viability at 24 h, 1000 μg/mL measured for the molecule `Cc1cccc2cc(C=NNC(N)=S)c(N3CCCCC3)nc12` turned out to be 77.9

The value of viability at 24 h, 1000 μg/mL measured for the molecule `Cc1cccc2cc(C=NNC(=S)Nc3ccc(F)cc3)c(N3CCCCC3)nc12` turned out to be 114
